ASSAY: Solubility to fasted state simulated intestinal fluid
Assay type: physicochemical
STATED CONDITIONS: fassif, kinetic from dmso stock, fasted state simulated intestinal fluid (pH 6.5), 37° C.
QUANTITY KIND: solubility at 20 h (µg/mL)

Example results:
CN(C)CCNC(=O)c1nccc2c1ncn2-c1ccc(NC(=O)Nc2ccc(Cl)c(C(F)(F)F)c2)cc1 ... 76
CN1CCN(Cc2cc(NC(=O)Nc3ccc(-n4cnc5ncnc(N)c54)cc3)cc(C(F)(F)F)c2)CC1 ... 219

I = CNc1ncnc2c1ncn2-c1ccc(NC(=O)Nc2cc(CN3CCN(C)CC3)cc(C(F)(F)F)c2)cc1
II = CNc1ncnc2c1ncn2-c1ccc(NC(=O)Nc2ccc(CN3CC(C)NC(C)C3)c(C(F)(F)F)c2)cc1 (stereo not shown)
Q: Lab notebook, comparison: I versus II , higher solubility at 20 h goes to which? Use the label to indicate which entry you chose.
Result: I
(I: 158 µg/mL, II: 23 µg/mL)

----------
TARGET: recombinant Raf-1 protein (activated type GST-Raf-1) (Homo sapiens, UniProt P04049)
Construct: fused on or other part: GST tag fused to Raf-1
Sequence (P04049 349-648 limits assumed): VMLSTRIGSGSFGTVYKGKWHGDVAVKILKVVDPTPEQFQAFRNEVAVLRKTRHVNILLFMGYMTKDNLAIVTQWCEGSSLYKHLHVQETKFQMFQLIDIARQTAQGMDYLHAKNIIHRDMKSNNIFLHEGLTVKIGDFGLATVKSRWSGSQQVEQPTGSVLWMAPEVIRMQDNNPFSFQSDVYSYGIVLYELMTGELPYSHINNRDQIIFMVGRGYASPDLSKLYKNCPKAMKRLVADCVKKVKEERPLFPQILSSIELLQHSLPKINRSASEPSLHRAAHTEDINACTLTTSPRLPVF
ASSAY: RAF-1 enzyme inhibition test (33P incorporation into MEK 1 protein)
STATED CONDITIONS: 10 μM ATP, GST-MEK1 substrate, 30° C., 45 minutes; read-out: Raf-1 Enzyme Inhibition, 50% Enzyme Inhibition Concentration (IC50 value)
QUANTITY KIND: IC50 (nM)

Example results:
O=C(Nc1ccc(Cl)c(C(F)(F)F)c1)N(O)c1ccc(-n2cnc3ncncc32)cc1 [Table 1, Compound 46] ... 67
CNc1ncnc2c1ncn2-c1ccc(NC(=O)Nc2cc(CCN3CCCCC3)cc(C(F)(F)F)c2)cc1 [Table 3, Compound 30] ... 170
CNc1ncnc2c1ncn2-c1ccc(NC(=O)Nc2ccc(CN3CC(C)NC(C)C3)c(C(F)(F)F)c2)cc1 (centres unmarked) [Table 3, Compound 46] ... 41

1 = C=Cc1nc2c(N)ncnc2n1-c1ccc(NC(=O)Nc2ccc(Cl)c(C(F)(F)F)c2)cc1 [Table 2, Compound 8]
2 = CNc1ncnc2c1ncn2-c1ccc(NC(=O)Nc2cc(CN(C)C)cc(C(F)(F)F)c2)cc1 [Table 2, Compound 30]
Q: Lab notebook, comparison: 1 versus 2 , higher IC50 goes to which? Use the label to indicate which entry you chose.
Result: 2
(2: 190 nM, 1: 29 nM)

----------
System: human colorectal cancer cell strain HCT 116
ASSAY: Cell growth inhibition test, HCT 116
Type: cell-based
STATED CONDITIONS: 72 hours, read-out: HCT116, 50% Growth Inhibition Concentration (IC50 value)
Where a name gives a salt, the structure may show the parent alone.
QUANTITY KIND: IC50 (nM)

Example results:
N[C@@H](CCC(=O)Nc1ncnc2c1ncn2-c1ccc(NC(=O)Nc2ccc(Cl)c(C(F)(F)F)c2)cc1)C(=O)O [Table 1, Compound 104, hydrochloride] ... 3900
CNc1ncnc2c1ncn2-c1ccc(NC(=O)Nc2cccc(C(F)(F)F)c2)cc1 ... 1100
CNc1ncnc2c1ncn2-c1ccc(NC(=O)Nc2cc(N(C)C)cc(C(F)(F)F)c2)cc1 ... 2400

1 = CN1CCN(Cc2ccc(NC(=O)Nc3ccc(-n4cnc5cnccc54)cc3)cc2C(F)(F)F)CC1
2 = Nc1ncnc2c1ncn2-c1ccc(NC(=O)Nc2cc(Br)cc(C(F)(F)F)c2)cc1
Q: Compare 1 and 2 and name the one whose reported IC50 is smaller. Use the label to indicate which entry you chose.
Result: 2

A = CNc1ncnc2c1ncn2-c1ccc(NC(=O)Nc2ccc(CN3CCN(C)CC3)c(C(F)(F)F)c2)cc1
B = CNc1ncnc2c1ncn2-c1ccc(NC(=O)Nc2cc(CCCN3CCOCC3)cc(C(F)(F)F)c2)cc1
Q: Compare A and B and name the one whose reported IC50 is smaller. Use the label to indicate which entry you chose.
Result: A
(A: 240 nM, B: 2500 nM)

----------
System: human colorectal cancer cell strain HCT 116
ASSAY: Antitumor test, HCT 116 inoculated subcutaneously in nude mouse
Format: in vivo, male Balb/c nude mouse
STATED CONDITIONS: dosage 200 mg/kg, orally one time a day for 5 days, final administration day
QUANTITY KIND: Tumor Inhibition Ratio (%)
I only need the number, in %, no unit after it.

Example results:
CNC(=O)c1nccc2c1ncn2-c1ccc(NC(=O)Nc2ccc(Cl)c(C(F)(F)F)c2)cc1 ... 79
CNc1ncnc2c1ncn2-c1ccc(NC(=O)Nc2ccc(Cl)c(C(F)(F)F)c2)cc1.Cl ... 81
CNc1ncnc2c1ncn2-c1ccc(NC(=O)Nc2cc(CN3CCN(C)CC3)cc(C(F)(F)F)c2)cc1 ... 80

Q: Dear colleague, I am looking for the recorded Tumor Inhibition Ratio (%) of the following compound: `CNc1ncnc2c1ncn2-c1ccc(NC(=O)Nc2cc(CN(C)C)cc(C(F)(F)F)c2)cc1`
Result: 131

Q: Dear colleague, I am looking for the recorded Tumor Inhibition Ratio (%) of the following compound: `CCCNC(=O)Nc1ncnc2c1ncn2-c1ccc(NC(=O)Nc2ccc(Cl)c(C(F)(F)F)c2)cc1`
Result: 89

Q: Dear colleague, I am looking for the recorded Tumor Inhibition Ratio (%) of the following compound: `CN1CCN(Cc2cc(NC(=O)Nc3ccc(-n4cnc5c(N)ncnc54)cc3)cc(C(F)(F)F)c2)CC1`
Result: 72

----------
Tested on: VEGF non-dependent human umbilical vein endothelial cells (HUVEC)
ASSAY: Cell growth inhibition test, VEGF non-dependent HUVEC
Type: cell-based
STATED CONDITIONS: 72 hours, WST-1, read-out: HUVEC (VEGF Nondependence), 50% Growth Inhibition Concentration (IC50 value)
QUANTITY KIND: IC50 (µM)
I only need the number, in µM, no unit after it.

CN(C)/C=N\c1ncnc2c1ncn2-c1ccc(NC(=O)Nc2ccc(Cl)c(C(F)(F)F)c2)cc1 ... 2.6
COCCNc1ncnc2c1ncn2-c1ccc(NC(=O)Nc2ccc(Cl)c(C(F)(F)F)c2)cc1.Cl [Table 1, Compound 35, hydrochloride] ... 2.4
CCN1CCN(Cc2ccc(NC(=O)Nc3ccc(-n4cnc5c(NC)ncnc54)cc3)cc2C(F)(F)F)CC1 ... 0.2

Q: Dear colleague, I am looking for the recorded IC50 of the following molecule: `CNc1ncnc2c1ncn2-c1ccc(NC(=O)Nc2cc(CCCN3CCOCC3)cc(C(F)(F)F)c2)cc1`
Result: 3.2

----------
TARGET: recombinant Raf-1 protein (activated type GST-Raf-1) (Homo sapiens)
Construct: fused on or other part: GST tag fused to Raf-1
ASSAY: RAF-1 enzyme inhibition test (33P incorporation into MEK 1 protein)
Assay type: biochemical
STATED CONDITIONS: 10 μM ATP, GST-MEK1 substrate, 30° C., 45 minutes; read-out: Raf-1 Enzyme Inhibition, 50% Enzyme Inhibition Concentration (IC50 value)
QUANTITY KIND: IC50 (nM)

CNc1ncnc2c1ncn2-c1ccc(NC(=O)Nc2cc(CCN3CCOCC3)cc(C(F)(F)F)c2)cc1 [Table 2, Compound 73] ... 84
C=Cc1nc2c(N)ncnc2n1-c1ccc(NC(=O)Nc2cc(CN3CCN(C)CC3)cc(C(F)(F)F)c2)cc1 [Table 2, Compound 28] ... 69

P = CN1CCN(Cc2cc(NC(=O)Nc3ccc(-n4cnc5c(N)ncnc54)cc3)cc(C(F)(F)F)c2)CC1 [Table 2, Compound 26]
Q = CCCNC(=O)Nc1ncnc2c1ncn2-c1ccc(NC(=O)Nc2ccc(Cl)c(C(F)(F)F)c2)cc1 [Table 1, Compound 119]
Q: Compare P and Q and name the one whose reported IC50 is smaller. Use the label to indicate which entry you chose.
Result: Q

----------
ASSAY: Solubility to fasted state simulated intestinal fluid
Format: physicochemical
STATED CONDITIONS: fassif, kinetic from dmso stock, fasted state simulated intestinal fluid (pH 6.5), 37° C.
Structures can show the parent of a compound that is named as a salt.
QUANTITY KIND: solubility at 20 h (mg/mL)

CNc1ncnc2c1ncn2-c1ccc(NC(=O)Nc2ccc(CCN(C)CCCN(C)C)c(C(F)(F)F)c2)cc1 [Table 3, Compound 38] ... 0.147
CC(C)C[C@H](N)C(=O)Nc1ncnc2c1ncn2-c1ccc(NC(=O)Nc2ccc(Cl)c(C(F)(F)F)c2)cc1 [Table 1, Compound 96, hydrochloride] ... 0.102
CNc1ncnc2c1nc(OC)n2-c1ccc(NC(=O)Nc2ccc(Cl)c(C(F)(F)F)c2)cc1 [Table 2, Compound 21] ... 0.12
CNc1ncnc2c1ncn2-c1ccc(NC(=O)Nc2ccc(OCCN(C)C)c(C(F)(F)F)c2)cc1 [Table 2, Compound 52] ... 0.126
CNc1ncnc2c1ncn2-c1ccc(NC(=O)Nc2cc(CN(C)C)cc(C(F)(F)F)c2)cc1 [Table 2, Compound 30] ... 0.105

----------
pIC50 values for the molecules below.
Test system: VEGF non-dependent human umbilical vein endothelial cells (HUVEC)
ASSAY: Cell growth inhibition test, VEGF non-dependent HUVEC
Type: cell-based
STATED CONDITIONS: 72 hours, WST-1, read-out: HUVEC (VEGF Nondependence), 50% Growth Inhibition Concentration (IC50 value)
Counter-ions that a name gives are not always drawn.
Just so you know, pIC50 here is -log10 of the concentration in molar units; reply with that number alone.

Example results:
CC(C)C[C@H](N)C(=O)Nc1ncnc2c1ncn2-c1ccc(NC(=O)Nc2ccc(Cl)c(C(F)(F)F)c2)cc1 [Table 1, Compound 96, hydrochloride] ... 5.49
CNc1ncnc2c1ncn2-c1ccc(NC(=O)Nc2ccc(CCCN3CCOCC3)c(C(F)(F)F)c2)cc1 ... 6.00
N[C@@H](CCC(=O)Nc1ncnc2c1ncn2-c1ccc(NC(=O)Nc2ccc(Cl)c(C(F)(F)F)c2)cc1)C(=O)O [Table 1, Compound 104, hydrochloride] ... 5.13
CNc1ncnc2c1ncn2-c1ccc(NC(=O)Nc2ccc(OCCN3CCOCC3)c(C(F)(F)F)c2)cc1 ... 5.77
CNc1ncnc2c1ncn2-c1ccc(NC(=O)Nc2ccc(CN3CCOCC3)c(C(F)(F)F)c2)cc1 ... 6.15

Q: Dear colleague, I am looking for the recorded pIC50 of the following molecule: `CNc1ncnc2c1ncn2-c1ccc(NC(=O)Nc2ccc(CN3CCN(C(C)C)CC3)c(C(F)(F)F)c2)cc1`
Result: 6.52

Q: Dear colleague, I am looking for the recorded pIC50 of the following molecule: `Nc1ncnc2c1ncn2-c1ccc(NC(=O)Nc2cc(Br)cc(C(F)(F)F)c2)cc1`
Result: 5.42

Origin of measurements: patent US8609656B2
